Attribution: ChEMBL document CHEMBL1201862

target_or_system: Serine/threonine-protein phosphatase (Candida dubliniensis (strain CD36 / CBS 7987 / NCPF 3949 / NRRLY-17841) (Yeast), UniProt B9W6M3)
Sequence (B9W6M3 whole entry): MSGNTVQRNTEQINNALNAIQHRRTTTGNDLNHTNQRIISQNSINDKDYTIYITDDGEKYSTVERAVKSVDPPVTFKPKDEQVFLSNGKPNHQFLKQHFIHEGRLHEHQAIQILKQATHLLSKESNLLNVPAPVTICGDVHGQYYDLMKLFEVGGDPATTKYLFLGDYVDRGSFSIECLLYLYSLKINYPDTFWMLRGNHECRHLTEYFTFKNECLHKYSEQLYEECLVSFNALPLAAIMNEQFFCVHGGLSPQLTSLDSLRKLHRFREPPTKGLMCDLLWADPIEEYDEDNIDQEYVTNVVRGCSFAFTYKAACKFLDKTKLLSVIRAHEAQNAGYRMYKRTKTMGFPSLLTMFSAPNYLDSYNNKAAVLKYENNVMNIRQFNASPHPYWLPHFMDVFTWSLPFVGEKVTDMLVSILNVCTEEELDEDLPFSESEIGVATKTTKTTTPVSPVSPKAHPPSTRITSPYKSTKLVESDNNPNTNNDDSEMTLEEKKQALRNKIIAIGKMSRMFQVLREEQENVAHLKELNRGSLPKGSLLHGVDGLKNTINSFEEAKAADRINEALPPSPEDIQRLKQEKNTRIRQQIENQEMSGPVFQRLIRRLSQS
measurement_protocol: calcineurin pathway inhibitors in yeast reporter, dose response, S. cerevisiae, CDRE-lacZ, luminescence, secondary (AID 2388);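 note: yeast reporter cells carrying a calcineurin-responsive lacZ construct stimulated with calcium chloride; luminescent beta-galactosidase reporter signal in whole cells rather than isolated phosphatase activity; potency for inhibition where a drop in reporter signal means calcineurin blockade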
Type: functional, cell-based
Activity calls are given as the source filed them.
Mark one answer only. Choices: active, inactive

O=Cc1ccc(O)c2ncccc12 = active

Query: Call for entry `Cc1ccc(-n2nc(C)c3c(C)cc(O)nc32)cc1` :
Response: inactive

Query: Call for entry `COc1ccc(-c2nnc(NC(=O)c3ccc(S(=O)(=O)N4CCc5ccccc5C4)cc3)o2)cc1` :
Response: inactive

Query: Call for entry `CCN1/C(=C/C(C)=C/c2sc3ccccc3[n+]2CC)Sc2ccccc21` :
Response: inactive

----------
target_or_system: UniProt P08684
Sequence (P08684 whole entry): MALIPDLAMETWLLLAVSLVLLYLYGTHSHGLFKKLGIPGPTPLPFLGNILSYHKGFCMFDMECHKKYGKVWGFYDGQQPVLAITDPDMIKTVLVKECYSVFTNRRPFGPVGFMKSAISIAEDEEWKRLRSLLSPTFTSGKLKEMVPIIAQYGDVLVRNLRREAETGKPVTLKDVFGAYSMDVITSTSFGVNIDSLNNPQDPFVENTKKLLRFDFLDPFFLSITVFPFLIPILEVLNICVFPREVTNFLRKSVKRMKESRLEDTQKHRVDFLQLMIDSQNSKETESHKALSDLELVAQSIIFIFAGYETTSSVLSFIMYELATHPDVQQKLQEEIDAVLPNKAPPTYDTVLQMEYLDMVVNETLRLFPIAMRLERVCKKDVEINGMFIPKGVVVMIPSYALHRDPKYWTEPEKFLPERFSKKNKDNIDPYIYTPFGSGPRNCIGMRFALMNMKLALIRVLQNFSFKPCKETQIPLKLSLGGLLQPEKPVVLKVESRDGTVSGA
assay_conditions: Potency
measurement_type: AC50

Recorded AC50, per entry:
CCCn1c(-c2ccc(F)cc2)nc2c(N(C)CCN(C)C)nc(C)nc21 = 25.1 µM (inconclusive)
COC(=O)[C@@]1(C)C[C@@H]1[C@@H](NC(=O)[C@@]1(C)C[C@@H]1[C@@H](NC(=O)[C@@]1(C)C[C@@H]1[C@@H](NC(=O)[C@@]1(C)C[C@@H]1[C@@H](NC(=O)OCc1ccccc1)c1ccccc1)c1ccccc1)c1ccccc1)c1ccccc1 = 0.2 µM (inconclusive)
COc1c(O)cc2c(-c3ccccc3)cc(=O)oc2c1OC [KUHLMANNIN] = 31.6 µM (inconclusive)

Query: Write down AC50 measured for item CC1(C)C2(Cl)C(Cl)C(Cl)C(Cl)(C(Cl)Cl)C1(Cl)C2Cl (stereo unspecified) [STROBANE]
Response: 15.8 µM (inconclusive)

Query: Write down AC50 measured for item `COC(=O)c1ccc(CN2[C@H](C(=O)OC)C[C@@]3(O)[C@H](O)[C@H](O)[C@H](O)C[C@@H]23)cc1`
Response: 12.6 µM (inconclusive)

Query: Write down AC50 measured for item CCCCC(CC)COCCCN (stereo unspecified)
Response: 31.6 µM (inconclusive)
